Collected Hemolytic activity (% ± SD) at 32 µM values appear next to each entry.
test system: human red blood cells; test: Cytotoxicity: hemolysis of human red blood cells; format: cell-based
No end group written: not given here.
quantity-name: Hemolytic activity (% ± SD) at 32 µM (%)

| substance | value |
| --- | --- |
| GLLFKELQKLIRYQIFIGK-NH2 [Tc10] | 0.23 |
| GSLHGFMYKYLKTLVLRLY-NH2 [Zm01] | 2.45 |
| FFYNVIKIYGNMAGRISK-NH2 [Cs03] | 0.99 |
| LHRLVKLVAALLRGYASKVDTH [Tc08] | 15.47 |
| GSLHGFMYKYLKNMVLNLF-NH2 [Tc06] | 0.77 |
| KVLSKVHTLLKAVLAL-NH2 [At02] | 2.41 |
| GFKLGRKLVKVFKWII-NH2 [Gr01] | 11.33 |
| GSLHGFMYKYLKNMVLTLF-NH2 [At01] | 1.05 |
| GLYNFIKVLGRTVFGLYKQF-NH2 [At04] | 0.91 |
| GAKLAKKQVRALGKFFSF-NH2 [At03] | 0.03 |
| ANRLLEAYKMLLKFLGNLR-NH2 [Gr02] | 28.33 |
| GFKDLLKGAAKALVKTVLF-NH2 [Asc-8, Ascaphin-8, reference compound] | 54.35 |
| IKLRNVLKYLFRIDVIKEDIL-NH2 [Tc03] | 0.67 |
| IVNHLVKLFDKGLNSIVNLR-NH2 [Tc05] | 0.21 |
| GLWSTIKQKGKEAAIAAAKAAGQAALGAL-NH2 [DS01, Dermaseptin DS01, reference compound] | 0.79 |
| GKILKYLLYLLRKYANLIIR-NH2 [Tc02] | 17.39 |
| GSLHGFMYRYLKNMVLNLF-NH2 [Cs01] | 0.31 |

---

Tested on: human red blood cells
Assay: Cytotoxicity: hemolysis of human red blood cells
Format: cell-based
Protocol: The cytotoxicity of the selected IAPS was performed using human red blood cells in strict accordance with relevant guidelines and regulations (Ethical committee – UnB # 1.939.989). Different concentrations of IAPs (128 µM–0.5 µM) were incubated with a final concentration of 2.5 × 10^5 red blood cells.mL^−1. […] Microplate reading was performed at a BioTek Multireader, using a wavelength of 540 nm. […]
No end group written: not given here.
yes (1) means recorded Hemolytic activity (% ± SD) at 128 µM is 20% or above; no (0) means it is below 20%.

| substance | group |
| --- | --- |
| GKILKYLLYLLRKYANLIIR-NH2 [Tc02] | yes (1) |
| ANRLLEAYKMLLKFLGNLR-NH2 [Gr02] | yes (1) |
| GFKDLLKGAAKALVKTVLF-NH2 [Asc-8, Ascaphin-8, reference compound] | yes (1) |
| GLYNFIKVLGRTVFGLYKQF-NH2 [At04] | no (0) |
| GSLHGFMYRYLKNMVLNLF-NH2 [Cs01] | no (0) |
| GAKLAKKQVRALGKFFSF-NH2 [At03] | no (0) |
| FFYNVIKIYGNMAGRISK-NH2 [Cs03] | no (0) |
| GSLHGFMYKYLKTLVLRLY-NH2 [Zm01] | no (0) |
| GLLFKELQKLIRYQIFIGK-NH2 [Tc10] | no (0) |
| GSLHGFMYKYLKNMVLNLF-NH2 [Tc06] | no (0) |
| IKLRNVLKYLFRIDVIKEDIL-NH2 [Tc03] | no (0) |
| KVLSKVHTLLKAVLAL-NH2 [At02] | yes (1) |
| GFKLGRKLVKVFKWII-NH2 [Gr01] | yes (1) |
| GSLHGFMYKYLKNMVLTLF-NH2 [At01] | no (0) |

The origin of these recorded values is paper PMC5643462.
